Where do the numbers come from? From patent US10745346B2.

Biological target: Recombinant SHP-1 protein (Homo sapiens, UniProt P29350)
Sequence (P29350 whole entry): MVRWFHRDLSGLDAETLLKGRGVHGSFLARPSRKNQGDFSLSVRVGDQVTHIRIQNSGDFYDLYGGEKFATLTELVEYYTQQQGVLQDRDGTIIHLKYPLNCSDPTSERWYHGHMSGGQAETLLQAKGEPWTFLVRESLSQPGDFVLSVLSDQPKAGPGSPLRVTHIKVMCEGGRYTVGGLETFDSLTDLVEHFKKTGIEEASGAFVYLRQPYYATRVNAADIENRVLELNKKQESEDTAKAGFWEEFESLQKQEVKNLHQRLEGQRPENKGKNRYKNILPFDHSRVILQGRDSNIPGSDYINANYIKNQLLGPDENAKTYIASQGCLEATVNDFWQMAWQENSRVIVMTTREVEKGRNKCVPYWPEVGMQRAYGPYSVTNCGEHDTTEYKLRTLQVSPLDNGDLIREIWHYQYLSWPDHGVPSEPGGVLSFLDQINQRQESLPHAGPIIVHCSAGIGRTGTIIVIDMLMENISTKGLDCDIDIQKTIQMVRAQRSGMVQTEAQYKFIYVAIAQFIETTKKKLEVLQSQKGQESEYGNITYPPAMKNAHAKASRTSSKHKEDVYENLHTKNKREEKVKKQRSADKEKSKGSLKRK
Assay: SHP-1 phosphatase activity assay (RediPlate 96 EnzChek Tyrosine Phosphatase Assay kit)
Assay type: biochemical
Conditions: SC derivatives at 1 μM for 2 hr; recombinant SHP-1 25 ng; control DMSO = 100; mean±SD (N=3)
quantityKind: SHP-1 Activity (% of control)

Enquiry: Returns the measured SHP-1 Activity (% of control) for the input molecule. Input: `N#Cc1ccc(Oc2cccc(NC(=O)C(=O)Nc3ccc(Cl)c(C(F)(F)F)c3)c2)cc1`
Return: 95.16 ± 6.91 % of control

Enquiry: Entry `Cc1ccc(NC(=O)Nc2ccc(C)c(Oc3ccc(C#N)c(Cl)c3)c2)cc1Oc1ccc(C#N)cc1` please
Return: 94.38 ± 11.11 % of control

Enquiry: Entry `N#Cc1ccc(Oc2cc(NC(=O)Nc3ccc(Cl)c(C(F)(F)F)c3)ccc2Cl)cc1` please
Return: 280.62 ± 16.62 % of control

Enquiry: Entry `N#Cc1ccc(Oc2ccc(F)c(NC(=O)Nc3cc(C(F)(F)F)cc(C(F)(F)F)c3)c2)cn1` please
Return: 353.11 ± 30.81 % of control

Enquiry: Entry N#CC1=CCC(OC2=CC(NC(=O)C(=O)Nc3cccc(Oc4ccc(C#N)cc4)c3)CC=C2)C=C1 (stereo not shown) please
Return: 91.23 ± 15.95 % of control

Enquiry: Entry `N#Cc1ccc(Oc2ccc3c(c2)N(C(=O)Nc2cccc(C(F)(F)F)c2)CCO3)cc1` please
Return: 98.04 ± 8.80 % of control

Enquiry: Entry `Cc1ccc(NC(=O)Nc2ccc(CC#N)cc2)cc1Oc1ccc(C#N)cc1` please
Return: 153.32 ± 14.65 % of control

Enquiry: Entry `C#Cc1cccc(NC(=O)Nc2ccc(Oc3ccc(CC#N)cc3)cc2)c1` please
Return: 101.42 ± 7.86 % of control

Enquiry: Entry `N#CCc1ccc(Oc2ccc(NC(=O)Nc3cccc(C(F)(F)F)c3)cc2)cc1` please
Return: 110.75 ± 1.18 % of control

Enquiry: Entry `N#Cc1ccc(Oc2ccc(NC(=O)Nc3ccc(Cl)c(C(F)(F)F)c3)c(F)c2)cc1Cl` please
Return: 133.11 ± 12.03 % of control

Enquiry: Entry `C#Cc1cccc(NC(=O)Nc2ccc(C)c(Oc3ccc(C#N)cc3)c2)c1` please
Return: 93.26 ± 9.30 % of control

Enquiry: Entry `N#Cc1ccc(Oc2cccc(NC(=O)C3(C(=O)Nc4cccc(Oc5ccc(C#N)cc5)c4)CC3)c2)cc1` please
Return: 94.05 ± 16.11 % of control

Enquiry: Entry `Cc1ccc(NC(=O)Nc2ccc(C)c(Oc3ccc(/C(N)=N/O)cc3)c2)cc1Oc1ccc(/C(N)=N/O)cc1` please
Return: 114.65 ± 13.55 % of control

Enquiry: Entry `C#Cc1cccc(NC(=O)N2CCOc3ccc(Oc4ccc(C#N)cc4)cc32)c1` please
Return: 140.58 ± 11.39 % of control

Enquiry: Entry `Cc1cc(Oc2cc(NC(=O)Nc3ccc(Cl)c(C(F)(F)F)c3)ccc2Cl)ccc1C#N` please
Return: 233.37 ± 36.5 % of control

Enquiry: Entry `Cc1ccc(NC(=O)Nc2ccc(C)c(Oc3ccc(C#N)c(Br)c3)c2)cc1Oc1ccc(C#N)c(Br)c1` please
Return: 110.68 ± 13.38 % of control
